target: Nicotinamide phosphoribosyltransferase (Homo sapiens, UniProt P43490); test: Positive allosteric modulator activity at human C-terminal his 6 tagged NAMPT using NAM and PRPP as substrate by coupled enzymatic analysis; settings: read-out: EC50
Sequence (P43490 whole entry): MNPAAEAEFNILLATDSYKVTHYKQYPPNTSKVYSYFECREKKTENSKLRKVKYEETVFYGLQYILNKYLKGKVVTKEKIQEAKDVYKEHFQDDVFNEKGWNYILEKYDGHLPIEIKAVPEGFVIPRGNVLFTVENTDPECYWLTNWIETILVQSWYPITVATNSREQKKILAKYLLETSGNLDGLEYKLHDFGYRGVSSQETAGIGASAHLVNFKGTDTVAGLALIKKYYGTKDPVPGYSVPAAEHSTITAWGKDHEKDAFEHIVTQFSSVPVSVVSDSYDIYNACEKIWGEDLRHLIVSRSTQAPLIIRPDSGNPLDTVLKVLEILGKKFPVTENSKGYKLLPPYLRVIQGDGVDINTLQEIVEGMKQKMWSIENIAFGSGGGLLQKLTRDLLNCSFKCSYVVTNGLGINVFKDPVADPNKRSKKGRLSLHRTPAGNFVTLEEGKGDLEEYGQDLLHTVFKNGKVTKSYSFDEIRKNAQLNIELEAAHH
observable: EC50 (µM)
Respond numerically; units are µM and should not be typed.

>  <compound>
COc1ccc(CN(CCC2(C(C)C)CCOC(C)(C)C2)C(=O)c2ccc(Br)s2)cc1 (configuration not stated)

>  <unitName>
µM

>  <val>
12.8

$$$$

Now take the following compound into account.
In: Dear colleague, please send me the reported EC50 for CC(C)C1(CCN(Cc2ccc(N(C)C)cc2)C(=O)c2ccco2)CCOC(C)(C)C1 (configuration not stated) when you can.
Out: 3.29
